System: NCI-H460 lung
Test: NCI tumour cell line growth inhibition, 48 h
Readings of TGI for the listed compounds

- O=C1CCC(=O)N1n1c(Cc2ccc(Cl)cc2)n[nH]c1=O: > 100 µM
- COc1cc(C2=C(C#Cc3ccccc3)COC2=O)cc(OC)c1OC: > 100 µM

Let's switch to this compound now.
Prompt: What value of TGI has been recorded for this entry: `CC1(C)[C@@H](O[C@@H]2OC[C@@H](O[C@@H]3O[C@H](CO)[C@@H](O)[C@H](O)[C@H]3O[C@@H]3OC[C@@H](O)[C@H](O)[C@H]3O)[C@H](O)[C@H]2O[C@@H]2O[C@H](CO)[C@@H](O)[C@H](O)[C@H]2O)CC[C@]2(C)[C@H]3CC[C@]45OC[C@@]6(CC[C@](C)(C=O)C[C@H]64)[C@H](O)C[C@@]5(C)[C@]3(C)CC[C@@H]12`
Response: 3.26 µM

====

Readings of TGI for the listed compounds
Tested on: MDA-MB-435
Test: NCI tumour cell line growth inhibition, 48 h

Would you please look over these solved cases?
* COc1ccc(/C(C#N)=C/c2ccc(OC)c(OC)c2)cc1 | > 100 µM
* COc1cc(COC(=O)N(CC(=O)O)c2ccccc2)c([N+](=O)[O-])cc1OC | > 100 µM
* CC1C2CC(C(S(=O)(=O)N3CCOCC3)/C2=N\O)C1(C)C (stereo not drawn) | > 100 µM
* COC(=O)C1CCC(=O)N1C(c1ccc(OC)cc1)c1ccc(OC)cc1 (stereo not drawn) | > 100 µM
* O=c1[nH]c(Nc2cc(Cl)cc(Cl)c2)nc2nc[nH]c12 | > 75 µM
* O=C1CCCC/C1=C\c1ccc(Br)cc1 | 30.6 µM
* CC1(CCCO)CCCCCCCCCC(C)(CCCO)C1=O (stereo not drawn) | > 100 µM
* COc1ccc2sc(-n3nc4ccccc4c3Nc3nc4ccc(OC)cc4s3)nc2c1 | 12 µM
* COC(=O)/C=C/c1ccc2c(c1)CC1(C2)Cc2cc3c(cc2C1=O)CCC3 (stereo not drawn) | > 100 µM
* C/C(=C/C(=O)Nn1c(Cc2ccccc2)n[nH]c1=O)C(=O)O | > 100 µM

Let's switch to this compound now.
Prompt: Please tell me: TGI of `Nc1nc(N)c2ncn(Cc3ccccc3CCl)c2n1` , system MDA-MB-435?
Response: > 100 µM

====

System: 786-0 renal
Assay: NCI tumour cell line growth inhibition, 48 h
parameter_measured: TGI

- Cn1/c(=N\S(=O)(=O)c2ccccc2)n(S(=O)(=O)c2ccccc2)c2ccccc21: > 100 µM

Let's switch to this compound now.
Prompt: What value of TGI has been recorded for this entry: `O=C(/C=C/c1ccc(O)c(O)c1)c1cc(O)cc(O)c1`
Response: 26.6 µM

====

Readings of TGI for the listed compounds
Tested on: HT29 colon
Assay: NCI tumour cell line growth inhibition, 48 h

* O=C(O)c1cnc2[nH]ccn2c1=O | > 100 µM
* CCOC(=O)Cc1nc2sc(S(N)(=O)=O)nn2c1Br | 45.1 µM
* N=C(N)SCc1ccc(Cl)cc1Cl (tested in a mixture with another compound) | 29.2 µM
* CN(C)c1ccc(C(Cc2ccc3ccccc3n2)Cc2ccc3ccccc3n2)cc1 | > 100 µM
* CCOC(=O)C1OC(C2(C)OC3(OC4(C=CC3O)OC(C(C)C(=O)C(C)C(O)C(C)CC(C)c3c(Cl)cc(C)c(O)c3C(=O)O)C(C)CC4C)C(C)C2OC)CC1O (centres undefined) | 3.57 µM

Prompt: Please tell me: TGI of `COc1cc2c(cc1C)NC(=O)/C2=C\c1cccc(Oc2ccccc2)c1` , system HT29 colon?
Response: 26.1 µM

Prompt: Please tell me: TGI of `COc1cc2c3c(n(CCCI)c(=O)c2cc1OC)-c1cc2c(cc1C3=O)OCO2` , system HT29 colon?
Response: > 100 µM

Prompt: Please tell me: TGI of `CCc1cccc(C(C)C)c1N1C(=O)C(=O)C(c2nc3ccccc3s2)C(=O)C1=O` , system HT29 colon?
Response: > 50 µM

Prompt: Please tell me: TGI of `C/C(=C/C(=O)Nn1c(Cc2ccccc2)n[nH]c1=O)C(=O)O` , system HT29 colon?
Response: > 100 µM
